Read-out record for Butyrylcholinesterase (Equus caballus, UniProt Q9N1N9): pIC50
The value called pIC50 is obtained by taking minus log10 of the concentration in mol/L.

Recorded results for 8 compounds are shown here.
compound=c1cc(C[n+]2ccc(N3CCCC3)cc2)ccc1CCCCc1ccc(C[n+]2ccc(N3CCCC3)cc2)cc1 test_readout=pIC50 recorded_measurement=6.17
compound=c1cc(C[n+]2ccc(N3CCCC3)cc2)ccc1Cc1ccc(C[n+]2ccc(N3CCCC3)cc2)cc1 test_readout=pIC50 recorded_measurement=6.24
compound=COc1cc2c(cc1OC)CN(c1cc[n+](Cc3cccc(-c4cccc(C[n+]5ccc(N6CCc7cc(OC)c(OC)cc7C6)cc5)c4)c3)cc1)CC2 test_readout=pIC50 recorded_measurement=5.93
compound=c1cc2cc(c1)C[n+]1ccc(cc1)NCc1ccc(cc1)CNc1cc[n+](cc1)C2 test_readout=pIC50 recorded_measurement=6.07
compound=c1ccc2c(c1)CCN(c1cc[n+](Cc3ccc(C[n+]4ccc(N5CCc6ccccc6C5)cc4)cc3)cc1)C2 test_readout=pIC50 recorded_measurement=6.49
compound=CN(C)c1cc[n+](Cc2ccc(CCCCc3ccc(C[n+]4ccc(N(C)C)cc4)cc3)cc2)cc1 test_readout=pIC50 recorded_measurement=6.43
compound=c1cc(C[n+]2ccc(N3CCCCC3)cc2)ccc1C[n+]1ccc(N2CCCCC2)cc1 test_readout=pIC50 recorded_measurement=6.17
compound=c1cc(C[n+]2ccc(N3CCCCC3)cc2)ccc1Cc1ccc(C[n+]2ccc(N3CCCCC3)cc2)cc1 test_readout=pIC50 recorded_measurement=7.21

What pIC50 value was documented for this compound, "c1cc(C[n+]2ccc(N3CCCCCC3)cc2)ccc1CCc1ccc(C[n+]2ccc(N3CCCCCC3)cc2)cc1" ?
6.56

----------
Molecular target: UniProt:P23795
Sequence (P23795 whole entry): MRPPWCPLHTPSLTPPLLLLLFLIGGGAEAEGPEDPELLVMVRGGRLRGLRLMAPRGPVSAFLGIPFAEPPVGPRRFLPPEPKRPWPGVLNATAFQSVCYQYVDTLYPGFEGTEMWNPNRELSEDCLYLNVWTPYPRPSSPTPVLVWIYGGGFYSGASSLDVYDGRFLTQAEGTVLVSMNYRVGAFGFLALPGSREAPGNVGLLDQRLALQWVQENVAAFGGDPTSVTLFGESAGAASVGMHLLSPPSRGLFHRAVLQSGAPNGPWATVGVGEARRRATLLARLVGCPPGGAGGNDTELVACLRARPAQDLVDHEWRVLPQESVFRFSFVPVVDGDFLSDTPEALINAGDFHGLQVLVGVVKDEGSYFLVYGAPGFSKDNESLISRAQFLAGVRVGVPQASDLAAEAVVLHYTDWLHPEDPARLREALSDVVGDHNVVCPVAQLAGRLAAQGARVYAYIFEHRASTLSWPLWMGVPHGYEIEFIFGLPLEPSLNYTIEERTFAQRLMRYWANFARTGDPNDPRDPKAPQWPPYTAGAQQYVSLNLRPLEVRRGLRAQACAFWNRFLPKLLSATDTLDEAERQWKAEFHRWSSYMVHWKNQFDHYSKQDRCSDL
pIC50: −log10 of the molar value.
Classification field: enter class 1 for pIC50 values not below 7, class 0 for values below it.

# count of solved cases: 3
smiles_code=CN(c1cc[n+](Cc2ccc(C[n+]3ccc(N(C)c4cc(Cl)cc(Cl)c4)cc3)cc2)cc1)c1cc(Cl)cc(Cl)c1 target_system=UniProt:P23795 assigned_label="class 0"
smiles_code=c1cc(C[n+]2ccc(N3CCCCCC3)cc2)ccc1CCCc1ccc(C[n+]2ccc(N3CCCCCC3)cc2)cc1 target_system=UniProt:P23795 assigned_label="class 0"
smiles_code=CN(C)c1cc[n+](Cc2ccc(CCc3ccc(C[n+]4ccc(N(C)C)cc4)cc3)cc2)cc1 target_system=UniProt:P23795 assigned_label="class 0"

Does "c1ccc(-c2cc[n+](Cc3cccc(-c4cccc(C[n+]5ccc(-c6ccccc6)cc5)c4)c3)cc2)cc1" have a reported pIC50 of at least 7?
class 0

What about "c1cc(C[n+]2ccc(N3CCCC3)cc2)ccc1C[n+]1ccc(N2CCCC2)cc1" ?
class 0

What about "c1cc(C[n+]2ccc(N3CCCCC3)cc2)cc(-c2cccc(C[n+]3ccc(N4CCCCC4)cc3)c2)c1" ?
class 1

What about "CN(C)c1cc[n+](Cc2ccc(C[n+]3ccc(N(C)C)cc3)cc2)cc1" ?
class 0

What about "CN(C)c1cc[n+](Cc2ccc(CCCCc3ccc(C[n+]4ccc(N(C)C)cc4)cc3)cc2)cc1" ?
class 0
